Taken from patent US20250066290A1.

experiment: Mouse pharmacokinetics, male and female, cassette dosing; type: in vivo, mice (C57BL/6J); details: C57BL/6J, mouse, in vivo; male mice; 5 mg/kg oral, 1 mg/kg intravenous cassette
Listed here: items and their measured Cmax.
The answer is to be given in ng/mL; state only the numeric part.

Previously resolved entries follow.
# chemical string, Cmax / ng/mL
records = [
    ("[2H]C([2H])([2H])Oc1cccc(-c2cc(F)c(NC(=O)C3=C(C(=O)NS(N)(=O)=O)CCC3)c(F)c2)c1", 1500),
    ("[2H]C([2H])([2H])Oc1cccc(-c2cc(F)c(NC(=O)C3=C(C(=O)NOC)CCC3)c(F)c2)c1", 1110),
]

Continue with the compound presented below.
Entry `CS(=O)(=O)NC(=O)C1=C(C(=O)Nc2c(F)c(F)c(-c3cccc(OC(F)(F)F)c3)c(F)c2F)CCC1` — recorded Cmax = 754

###

experiment: Kinetic aqueous solubility in PBS at pH 7.4; conditions: pH 7.4, aqueous buffer, kinetic from dmso stock
quantity measured: solubility

Previously resolved entries follow.
# molecule, data value
data = [
    ("[2H]C([2H])([2H])Oc1cccc(-c2cc(F)c(NC(=O)C3=C(C(=O)NS(C)(=O)=O)CCC3)c(F)c2)c1 [Example 1/1]", "227 µM"),
    ("O=C(Nc1c(F)c(F)c(-c2cccc(OC(F)(F)F)c2)c(F)c1F)C1=C(c2nn[nH]n2)CCC1 [Example 3]", "207 µM"),
    ("CS(=O)(=O)NC(=O)C1=C(C(=O)Nc2c(F)c(F)c(-c3cccc(OC(F)(F)F)c3)c(F)c2F)CCC1 [Example 1]", "237 µM"),
]

Entry [2H]C([2H])([2H])Oc1cccc(-c2cc(F)c(NC(=O)C3=C(C(=O)NS(N)(=O)=O)CCC3)c(F)c2)c1 [Example 2/1] — recorded solubility = 235 µM

###

assay: Mouse pharmacokinetics, female, deuteration matched pair analysis; format: in vivo, mice (C57BL/6J); conditions: C57BL/6J, mouse, in vivo; female mice; 5 mg/kg oral, 1 mg/kg intravenous cassette
quantity measured: Cmax
The reply should read as a number followed by its unit.

# chemical string, data value
records = [
    ("[2H]C([2H])([2H])Oc1cccc(-c2c(F)c(F)c(NC(=O)C3=C(C(=O)NOC)COC3)c(F)c2F)c1", "18 µg/mL"),
]

Entry `[2H]C([2H])([2H])ONC(=O)C1=C(C(=O)Nc2c(F)c(F)c(-c3cccc(OC([2H])([2H])[2H])c3)c(F)c2F)COC1` — recorded Cmax = 70 µg/mL

Entry `[2H]C([2H])([2H])ONC(=O)c1sccc1C(=O)Nc1c(F)c(F)c(-c2cccc(OC([2H])([2H])[2H])c2)c(F)c1F` — recorded Cmax = 6.7 µg/mL

Entry `[2H]C([2H])([2H])Oc1cccc(-c2cc(F)c(NC(=O)c3ccsc3C(=O)NOC)c(F)c2)c1` — recorded Cmax = 3 µg/mL

###

assay: Cytotoxicity in human rhinovirus test
Listed here: items and their measured CC50.

Entry `[2H]C([2H])([2H])Oc1cccc(-c2cc(F)c(NC(=O)C3=C(C(=O)NOC)CCC3)c(F)c2)c1` — recorded CC50 = > 25 µM

Entry `[2H]C([2H])([2H])Oc1cccc(-c2cc(F)c(NC(=O)c3ccsc3C(=O)NOC)c(F)c2)c1` — recorded CC50 = > 25 µM

###

assay: Mouse pharmacokinetics, female, deuteration matched pair analysis; type: in vivo, mice (C57BL/6J); conditions: female mice; bioavailability
quantity measured: F (%)
The answer is to be given in %; state only the numeric part.

Previously resolved entries follow.
# compound, F, %
records = [
    ("[2H]C([2H])([2H])ONC(=O)c1sccc1C(=O)Nc1c(F)c(F)c(-c2cccc(OC([2H])([2H])[2H])c2)c(F)c1F [9/6]", 76),
    ("[2H]C([2H])([2H])ONC(=O)C1=C(C(=O)Nc2c(F)c(F)c(-c3cccc(OC([2H])([2H])[2H])c3)c(F)c2F)COC1 [Example 5/5]", 56),
    ("[2H]C([2H])([2H])Oc1cccc(-c2c(F)c(F)c(NC(=O)C3=C(C(=O)NOC)COC3)c(F)c2F)c1 [Example 5/4]", 39),
]

Continue with the compound presented below.
Entry [2H]C([2H])([2H])Oc1cccc(-c2cc(F)c(NC(=O)c3ccsc3C(=O)NOC)c(F)c2)c1 [Example 9] — recorded F = 49

###

experiment: Mouse pharmacokinetics, female, deuteration matched pair analysis; format: in vivo, mice (C57BL/6J); conditions: female, C57BL/6J, mouse, in vivo
quantity measured: half-life

Entry [2H]C([2H])([2H])Oc1cccc(-c2c(F)c(F)c(NC(=O)C3=C(C(=O)NOC)COC3)c(F)c2F)c1 [Example 5/4] — recorded half-life = > 8 h

Entry [2H]C([2H])([2H])ONC(=O)C1=C(C(=O)Nc2c(F)c(F)c(-c3cccc(OC([2H])([2H])[2H])c3)c(F)c2F)COC1 [Example 5/5] — recorded half-life = > 8 h

Entry [2H]C([2H])([2H])Oc1cccc(-c2cc(F)c(NC(=O)c3ccsc3C(=O)NOC)c(F)c2)c1 [Example 9] — recorded half-life = 2.6 h

Entry [2H]C([2H])([2H])ONC(=O)c1sccc1C(=O)Nc1c(F)c(F)c(-c2cccc(OC([2H])([2H])[2H])c2)c(F)c1F [9/6] — recorded half-life = 2.5 h

###

test: A-B and B-A permeability (Caco-2, pH 7.4/7.4); assay type: in vitro ADME, human; details: human, Caco-2, Caco-2, 10 μM, B-A direction; read-out: recovery (B-A)
quantity measured: recovery at 10 μM (%)
The answer is to be given in %; state only the numeric part.

Entry `[2H]C([2H])([2H])Oc1cccc(-c2cc(F)c(NC(=O)C3=C(C(=O)NOC)CCC3)c(F)c2)c1` — recorded recovery at 10 μM = 52

###

experiment: Mouse pharmacokinetics, male and female, cassette dosing; type: in vivo, mice (C57BL/6J); conditions: male, C57BL/6J, mouse, in vivo
quantity measured: half-life (h)
The answer is to be given in h; state only the numeric part.

# chemical string, half-life [h]
rows = [
    ("CS(=O)(=O)NC(=O)C1=C(C(=O)Nc2c(F)c(F)c(-c3cccc(OC(F)(F)F)c3)c(F)c2F)CCC1", 2.9),
    ("[2H]C([2H])([2H])Oc1cccc(-c2cc(F)c(NC(=O)C3=C(C(=O)NOC)CCC3)c(F)c2)c1", 1.1),
]

Continue with the compound presented below.
Entry `[2H]C([2H])([2H])Oc1cccc(-c2cc(F)c(NC(=O)C3=C(C(=O)NS(N)(=O)=O)CCC3)c(F)c2)c1` — recorded half-life = 3.1

###

Listed here: items and their measured pIC50.
Biological target: N-terminally truncated recombinant hDHODH enzyme (Homo sapiens)
Sequence (Q02127 whole entry, looked up, the tested form may be a part): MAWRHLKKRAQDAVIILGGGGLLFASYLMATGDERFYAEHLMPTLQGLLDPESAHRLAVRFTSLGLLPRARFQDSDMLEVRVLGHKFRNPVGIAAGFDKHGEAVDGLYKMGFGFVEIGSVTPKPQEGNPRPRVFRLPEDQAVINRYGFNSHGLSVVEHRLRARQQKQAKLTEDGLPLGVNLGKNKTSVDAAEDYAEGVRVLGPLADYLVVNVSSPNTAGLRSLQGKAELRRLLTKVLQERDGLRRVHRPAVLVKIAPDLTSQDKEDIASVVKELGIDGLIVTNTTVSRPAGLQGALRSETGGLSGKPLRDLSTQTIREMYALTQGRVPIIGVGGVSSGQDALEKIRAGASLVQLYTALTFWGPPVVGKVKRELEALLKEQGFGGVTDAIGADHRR
Test: biochemical
Assay type: biochemical
Method: Briefly, the hDHODH concentration was adjusted in a way that an average slope of approximately 0.2 AU/min served as the positive control (e.g. without inhibitor). The standard assay mixture contained 60 μM 2,6-dichloroindophenol, 50 μM decylubiquinone and 100 μM dihydroorotate. […] For the determination of the IC50 values, each data point was recorded in triplicate. […].
pIC50: −log10 of the molar value.

Previously resolved entries follow.
# compound, assay system, pIC50
data = [
    ("O=C(Nc1c(F)c(F)c(-c2cccc(OC(F)(F)F)c2)c(F)c1F)C1=C(c2nn[nH]n2)CCC1 [Example 3]", "N-terminally truncated recombinant hDHODH enzyme (Homo sapiens)", "6.00 to 7.00"),
    ("[2H]C([2H])([2H])Oc1cccc(-c2cc(F)c(NC(=O)C3=C(/C(N)=N/O)CCC3)c(F)c2)c1 [Example 3-1]", "N-terminally truncated recombinant hDHODH enzyme (Homo sapiens)", "< 5.00"),
    ("[2H]C([2H])([2H])Oc1cccc(-c2cc(F)c(NC(=O)C3=C(C(=O)NOCC)CCC3)c(F)c2)c1 [4/9]", "N-terminally truncated recombinant hDHODH enzyme (Homo sapiens)", "5.00 to 6.00"),
    ("[2H]C([2H])([2H])Oc1cccc(-c2ccc(NC(=O)C3=C(C(=O)NOC)CCC3)c(F)c2)c1 [5/8]", "N-terminally truncated recombinant hDHODH enzyme (Homo sapiens)", "5.00 to 6.00"),
    ("CONC(=O)C1=C(C(=O)Nc2c(F)cc(-c3cccc4ocnc34)cc2F)CCC1 [4/14]", "N-terminally truncated recombinant hDHODH enzyme (Homo sapiens)", "5.00 to 6.00"),
    ("[2H]C([2H])([2H])Oc1cccc(-c2cc(F)c(NC(=O)C3=C(C(=O)NS(=O)(=O)C(F)F)CCC3)c(F)c2)c1 [1/3]", "N-terminally truncated recombinant hDHODH enzyme (Homo sapiens)", "5.00 to 6.00"),
    ("[2H]C([2H])([2H])Oc1cccc(-c2c(F)c(F)c(NC(=O)c3cc(C)sc3C(=O)NOC)c(F)c2F)c1 [Example 17-1]", "N-terminally truncated recombinant hDHODH enzyme (Homo sapiens)", "> 7.00"),
    ("[2H]C([2H])([2H])Oc1cccc(-c2cc(F)c(NC(=O)C3=C(C(=O)NOC)COC3)c(F)c2)c1 [Example 5]", "N-terminally truncated recombinant hDHODH enzyme (Homo sapiens)", "6.00 to 7.00"),
    ("[2H]C([2H])([2H])Oc1cccc(-c2cnc(NC(=O)C3=C(C(=O)NOC)CCC3)c(F)c2)c1 [Example 8]", "N-terminally truncated recombinant hDHODH enzyme (Homo sapiens)", "5.00 to 6.00"),
    ("[2H]C([2H])([2H])Oc1cccc(-c2c(F)c(F)c(NC(=O)C3=C(C(=O)NOCCO)COC3)c(F)c2F)c1 [5/6]", "N-terminally truncated recombinant hDHODH enzyme (Homo sapiens)", "6.00 to 7.00"),
]

Entry CONC(=O)C1=C(C(=O)Nc2c(F)cc(-c3cccc4c3OCO4)cc2F)CCC1 [4/13] — recorded pIC50 = 5.00 to 6.00

Entry [2H]C([2H])([2H])Oc1cccc(-c2cc(F)c(NC(=O)c3sccc3C(=O)NOC)c(F)c2)c1 [Example 10] — recorded pIC50 = > 7.00

Entry CONC(=O)C1=C(C(=O)Nc2ccc(-c3cccc(OC)c3)cc2F)CCC1 [Example 4/33] — recorded pIC50 = 5.00 to 6.00

Entry [2H]c1c([2H])c(F)c([2H])c(-c2c(F)c(F)c(NC(=O)C3=C(C(=O)NOC([2H])([2H])[2H])COC3)c(F)c2F)c1[2H] [5/2] — recorded pIC50 = 6.00 to 7.00

Entry [2H]C([2H])([2H])Oc1cccc(-c2cc(F)c(NC(=O)C3=C(C(=O)NOC)CCC3)c(OC([2H])([2H])[2H])c2)c1 [8/2] — recorded pIC50 = 5.00 to 6.00

Entry [2H]C([2H])([2H])Oc1ccccc1-c1c(F)c(F)c(NC(=O)C2=C(C(=O)NOCCO)CCC2)c(F)c1F [4/27] — recorded pIC50 = 6.00 to 7.00

Entry [2H]C([2H])([2H])Oc1cccc(-c2cc(F)c(NC(=O)C3=C(C(=O)NOCCO)CCC3)c(F)c2)c1 [Example 4/1] — recorded pIC50 = 5.00 to 6.00

Entry [2H]C([2H])([2H])Oc1cccc(-c2cc(F)c(NC(=O)C3=C(C(=O)NOCC#N)CCC3)c(F)c2)c1 [Example 4/3] — recorded pIC50 = 5.00 to 6.00

Entry [2H]C([2H])([2H])Oc1cccc(-c2c(F)c(F)c(NC(=O)C3=C(C(=O)NS(C)(=O)=O)COC3)c(F)c2F)c1 [1/10] — recorded pIC50 = 6.00 to 7.00

Entry [2H]C([2H])([2H])Oc1cccc(-c2cc(F)c(NC(=O)C3=C(C(=O)NS(=O)(=O)NC)CCC3)c(F)c2)c1 [2/3] — recorded pIC50 = 6.00 to 7.00

Entry [2H]C([2H])([2H])Oc1cccc(-c2cc(F)c(N(C)C(=O)C3=C(C(=O)NOC)CCC3)c(F)c2)c1 [Example 13] — recorded pIC50 = < 5.00

Entry [2H]C([2H])([2H])Oc1cccc(-c2ccc(NC(=O)C3=C(C(=O)NS(C)(=O)=O)CCC3)c(F)c2)c1 [1/11] — recorded pIC50 = 6.00 to 7.00

Entry [2H]C([2H])([2H])Oc1cccc(-c2c(F)c(F)c(NC(=O)c3scnc3C(=O)NOC)c(F)c2F)c1 [Example 16-2] — recorded pIC50 = 6.00 to 7.00

Entry [2H]C([2H])([2H])Oc1cccc(-c2c(F)c(F)c(NC(=O)C3=C(c4nn[nH]n4)COC3)c(F)c2F)c1 [Example 3/1] — recorded pIC50 = 5.00 to 6.00

Entry [2H]C([2H])([2H])Oc1cccc(-c2cc(F)c(NC(=O)C3=C(C(=O)NOC)CCC3)c(C#N)c2)c1 [8/3] — recorded pIC50 = 5.00 to 6.00

Entry [2H]C([2H])([2H])Oc1cccc(-c2c(F)c(F)c(NC(=O)c3c[nH]cc3C(=O)NOC)c(F)c2F)c1 [4/30] — recorded pIC50 = 6.00 to 7.00
